assayNotes: Metabolic stability in pooled rat liver microsomes
Format: in vitro ADME
statedConditions: both sexes, rat, pooled rat liver microsomes; 10 μM; phosphate buffer, 1 mM EDTA, 3 mM MgCl2; with NADPH-generating system; 120 minutes; read-out: recovery compared to the 0 minute
Protocol: The depletion of the parent compound and the formation of metabolites in a time-dependent manner were explored in the presence or absence of an NADPH-generating system. 3β-Hydroxy-17(1H-benzimidazol-1-yl)androsta-5,16-diene is incubated with pooled rat, dog, monkey and human liver microsomes at a protein concentration of 0.6 mg/mL. […] Samples are analyzed by LC/MS to monitor the remaining parent compound or formation of potential metabolites. […]
parameter: recovery at 120 min, 10 μM

Using the record for `C[C@]12CC[C@H](O)CC1=CC[C@@H]1[C@@H]2CC[C@]2(C)C(n3cnc4ccccc43)=CC[C@@H]12` , report its recovery at 120 min, 10 μM.
~79%

====

assayNotes: Metabolic stability in pooled rat liver microsomes
Type: in vitro ADME
statedConditions: both sexes, rat, pooled rat liver microsomes, pH 7.4; 10 μM; 0.1 M phosphate buffer only; with NADPH-generating system; 120 minutes; read-out: recovery compared to the 0 minute incubation
parameter: recovery at 120 min, 10 μM

Using the record for `C[C@]12CC[C@H](O)CC1=CC[C@@H]1[C@@H]2CC[C@]2(C)C(n3cnc4ccccc43)=CC[C@@H]12` , report its recovery at 120 min, 10 μM.
~86%

====

assayNotes: Metabolic stability in pooled dog liver microsomes
Type: in vitro ADME
statedConditions: both sexes, dog, pooled dog liver microsomes; 10 μM; phosphate buffer, 1 mM EDTA, 3 mM MgCl2; with NADPH-generating system; 60 minutes; read-out: recovery compared to the 0 minute
parameter: recovery at 60 min, 10 μM

Using the record for `C[C@]12CC[C@H](O)CC1=CC[C@@H]1[C@@H]2CC[C@]2(C)C(n3cnc4ccccc43)=CC[C@@H]12` , report its recovery at 60 min, 10 μM.
~85%

====

assayNotes: Metabolic stability in pooled human liver microsomes
Assay type: in vitro ADME
statedConditions: both sexes, human, pooled human liver microsomes; 10 μM; phosphate buffer, 1 mM EDTA, 3 mM MgCl2; with NADPH-generating system; over 120 minutes
parameter: recovery at 120 min, 10 μM

Using the record for `C[C@]12CC[C@H](O)CC1=CC[C@@H]1[C@@H]2CC[C@]2(C)C(n3cnc4ccccc43)=CC[C@@H]12` , report its recovery at 120 min, 10 μM.
~89%
